# Method summary: NFAT Signaling Pathway (AID 444);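 further: carbachol stimulus at about its EC50 of 1 µM final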
# Applied conditions: Jurkat NFAT-bla M1, carbachol, beta-lactamase ratio, 5 h; at 7.69 µM (top of the series) unless noted
Inconclusive results are not listed. The source made the active and inactive calls. The call rests on the fitted dose curve; in most records, active means well fitted curve in either direction with a large enough effect (not every such curve was filed as active); inconclusive means small, poorly fitted or top-dose-only effect, or another doubt; inactive means flat fitted curve, though single readings scatter.
Labels: True (active), False (inactive)

| Structure smiles | Assigned label |
| --- | --- |
| NCCNC(=O)c1ccc(Cl)cc1 | False |
| O=C(c1ccncc1)N1CCC2(CC1)CN(c1ncccn1)C2 | False |
| CN(C)c1ccc(-c2nc(NCCN3CCOCC3)c3ccccc3n2)cc1 | False |
| CCNc1ncc2nc(-c3ccc(OC)cc3)c(=O)n(CCOC)c2n1 | False |
| CS(=O)(=O)N1CCC[C@@]2(CCN(C(=O)Nc3ccccc3)C2)C1 | False |
| COc1cccc(-c2cc(N(C)Cc3ccco3)ncn2)c1 | False |
| CNc1oc(-c2cccs2)nc1C#N | False |
| O=C(c1csnn1)N1CCC[C@@]2(CCN(c3ccccn3)C2)C1 | False |
| Cn1c(=O)c(CCc2ccccc2)nc2cnc(OCc3ccccc3)nc21 | False |
| Cc1noc(C)c1C(=O)N1CCC2(CCN(Cc3cc(C(F)(F)F)cc(C(F)(F)F)c3)CC2)CC1 | False |
| CCNc1ncc2nc(-c3ccc(Cl)cc3)c(=O)n(CCC#N)c2n1 | False |
| O=c1cnc2cnc(Nc3ccccc3)nc2n1C1CC1 | False |
| COc1cccc(-c2ccc3ncnc(NC4CCNCC4)c3c2)c1 | False |
| O=S(=O)(c1ccccc1)N1CCC[C@@]2(CCN(c3ccccc3)C2)C1 | False |
| Cc1cccc(CNc2ncncc2-c2cccc(C#N)c2)c1 | False |
| COc1ncc2ncc(=O)n(C)c2n1 | False |
| Cc1ccccc1-c1cc(N(C)C)ncn1 | False |
| Cc1noc(C)c1-c1cc(NCc2cccnc2)ncn1 | False |
| COCC(=O)N1CCC[C@@]2(CCN(c3ncccn3)C2)C1 | False |
| Cc1nc2cnc(N3CCNCC3)nc2n(Cc2cccs2)c1=O | False |
| COc1cccc(Cn2c(=O)c(-c3ccc(F)cc3)nc3cnc(OC)nc32)c1 | False |
| CN(C)c1ccnc(-c2cccc(NS(C)(=O)=O)c2)n1 | False |
| Cc1nc2cnc(N(C)C)nc2n(C2CC2)c1=O | False |
| O=C(c1ccco1)N1CCC2(CC1)CN(c1ccccc1)C2 | False |
| CC(=O)N1CCC2(CC1)CCN(C(=O)Nc1cccc(F)c1)CC2 | False |
| COC(=O)N1CCC2(CCN(Cc3cc(C(F)(F)F)cc(C(F)(F)F)c3)CC2)CC1 | False |
| COc1cccc(Cn2c(=O)cnc3cncnc32)c1 | False |
| O=C(Cc1ccc(Cl)c(Cl)c1)OCCN1CCCC1 | False |
| COc1ccc(C(=O)N2CCC3(CC2)CN(c2ccncc2)C3)cc1 | False |
| CCNc1ncc2nc(C)c(=O)n(-c3ccc(OC)cc3)c2n1 | False |
| c1ccc2c(NC3CCNCC3)nc(-c3ccoc3)nc2c1 | False |
| O=c1c(-c2cccs2)nc2cnc(N3CCOCC3)nc2n1-c1ccccc1 | False |
| CN(C)Cc1ccccc1-c1nccc(N(C)C)n1 | False |
| O=C(Nc1ccccc1)N1CCC2(CC1)CCN(C(=O)c1cnccn1)CC2 | False |
| COc1ccc2[nH]cc(CCNc3ncncc3-c3ccc(N(C)C)cc3)c2c1 | False |
| N#Cc1ccc(CN2CCCC3(CCN(C(=O)c4cccc(F)c4)CC3)C2)cc1 | True |
| CS(=O)(=O)N1CCC2(CCN(c3ccccc3)CC2)CC1 | False |
| COc1ccccc1CNc1ccnc(-c2ccc3c(c2)OCO3)n1 | False |
| COc1ccc(-n2c(=O)c(-c3cccs3)nc3cnc(OC)nc32)cc1 | False |
| COCCn1c(=O)c(C)nc2cnc(N3CCNCC3)nc21 | False |
| NCCn1c(=O)c(CCc2ccccc2)nc2cncnc21 | False |
| O=C(Oc1ccccc1)N1CCC2(CC1)CCN(c1ncccn1)CC2 | False |
| COc1cccc(Nc2ncc3nc(CCc4ccccc4)c(=O)n(C)c3n2)c1 | False |
| O=c1c(-c2ccc(F)cc2)nc2cnc(Oc3cccc(Cl)c3)nc2n1C1CC1 | False |
| CN1CCN(c2ncc3ncc(=O)n(C4CC4)c3n2)CC1 | False |
| CN1CCN(c2ncc3nc(CCc4ccccc4)c(=O)n(C4CC4)c3n2)CC1 | False |
| CNc1cc(-c2ccccc2CN(C)C)ncn1 | False |
| COCCNc1ncncc1-c1c(C)noc1C | False |
